Reported kon values for a set of binders
molecular target: T1, CD28 (detection antigen of the BLI assay) (human, UniProt P10747 19-152, limits assumed); assay: BLI (GATOR); antibody loaded at 30 nM, antigen 300-37.5 nM
T1 construct: also called the antigen
MEASUREMENT TYPE: kon (M⁻¹ s⁻¹)

INSERT INTO measurements (binder, reported) VALUES
  ('huVH1huVL1 (antibody, human IgG1, kappa, V domains shown, also called huVH1VL1; 9.3h11) VH: QVKLQESGPGLVKPSETLSITCTVSGFSLSDYGVHWVRQSPGKGLEWLGVIWAGGGTNYNSALMSRKTISKDNSKSQVFLKMSSLTAADTAVYYCARDKGYSYYYSMDYWGQGTTVTVSS VL: DIQLTQSPSSLSVSVGDRVTISCRASESVEYYVTSLMQWYQQKPGQAPKLLIFAASNVESGVPSRFSGSGSGTNFTLTISSVQEEDFAMYFCQQSRKVPYTFGGGTKLEIKR', 86600),
  ('huVH1huVL2 (antibody, human IgG1, kappa, V domains shown) VH: QVKLQESGPGLVKPSETLSITCTVSGFSLSDYGVHWVRQSPGKGLEWLGVIWAGGGTNYNSALMSRKTISKDNSKSQVFLKMSSLTAADTAVYYCARDKGYSYYYSMDYWGQGTTVTVSS VL: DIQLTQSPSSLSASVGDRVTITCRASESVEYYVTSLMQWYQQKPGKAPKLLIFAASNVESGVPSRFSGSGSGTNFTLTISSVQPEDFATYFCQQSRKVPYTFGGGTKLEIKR', 89000);
